# Test target: heterodimeric receptor (T1R2/T1R3) (Homo sapiens, UniProt Q7RTX0+Q8TE23)
# Sequence (Q8TE23 20-839): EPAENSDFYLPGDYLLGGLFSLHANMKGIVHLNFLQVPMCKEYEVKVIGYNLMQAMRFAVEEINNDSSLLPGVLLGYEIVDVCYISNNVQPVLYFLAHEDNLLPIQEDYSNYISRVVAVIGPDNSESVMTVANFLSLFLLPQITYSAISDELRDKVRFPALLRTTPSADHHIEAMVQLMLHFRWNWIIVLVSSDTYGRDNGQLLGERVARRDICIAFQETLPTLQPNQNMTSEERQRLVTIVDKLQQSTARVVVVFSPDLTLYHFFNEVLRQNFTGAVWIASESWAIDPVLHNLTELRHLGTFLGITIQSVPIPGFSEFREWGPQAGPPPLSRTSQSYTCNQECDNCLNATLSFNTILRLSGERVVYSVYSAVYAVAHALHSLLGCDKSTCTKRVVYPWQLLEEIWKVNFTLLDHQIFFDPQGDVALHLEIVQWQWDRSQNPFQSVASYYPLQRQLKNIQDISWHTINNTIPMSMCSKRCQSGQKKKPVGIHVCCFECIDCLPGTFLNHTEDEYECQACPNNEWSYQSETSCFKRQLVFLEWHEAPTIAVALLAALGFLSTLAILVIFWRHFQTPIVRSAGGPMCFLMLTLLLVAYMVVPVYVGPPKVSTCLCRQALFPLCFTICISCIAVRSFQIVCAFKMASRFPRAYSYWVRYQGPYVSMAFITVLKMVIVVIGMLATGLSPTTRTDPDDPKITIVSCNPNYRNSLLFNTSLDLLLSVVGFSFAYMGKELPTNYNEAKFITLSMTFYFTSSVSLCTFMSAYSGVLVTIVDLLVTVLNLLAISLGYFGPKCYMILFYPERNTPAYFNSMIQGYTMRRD
# Sequence (Q7RTX0 21-852): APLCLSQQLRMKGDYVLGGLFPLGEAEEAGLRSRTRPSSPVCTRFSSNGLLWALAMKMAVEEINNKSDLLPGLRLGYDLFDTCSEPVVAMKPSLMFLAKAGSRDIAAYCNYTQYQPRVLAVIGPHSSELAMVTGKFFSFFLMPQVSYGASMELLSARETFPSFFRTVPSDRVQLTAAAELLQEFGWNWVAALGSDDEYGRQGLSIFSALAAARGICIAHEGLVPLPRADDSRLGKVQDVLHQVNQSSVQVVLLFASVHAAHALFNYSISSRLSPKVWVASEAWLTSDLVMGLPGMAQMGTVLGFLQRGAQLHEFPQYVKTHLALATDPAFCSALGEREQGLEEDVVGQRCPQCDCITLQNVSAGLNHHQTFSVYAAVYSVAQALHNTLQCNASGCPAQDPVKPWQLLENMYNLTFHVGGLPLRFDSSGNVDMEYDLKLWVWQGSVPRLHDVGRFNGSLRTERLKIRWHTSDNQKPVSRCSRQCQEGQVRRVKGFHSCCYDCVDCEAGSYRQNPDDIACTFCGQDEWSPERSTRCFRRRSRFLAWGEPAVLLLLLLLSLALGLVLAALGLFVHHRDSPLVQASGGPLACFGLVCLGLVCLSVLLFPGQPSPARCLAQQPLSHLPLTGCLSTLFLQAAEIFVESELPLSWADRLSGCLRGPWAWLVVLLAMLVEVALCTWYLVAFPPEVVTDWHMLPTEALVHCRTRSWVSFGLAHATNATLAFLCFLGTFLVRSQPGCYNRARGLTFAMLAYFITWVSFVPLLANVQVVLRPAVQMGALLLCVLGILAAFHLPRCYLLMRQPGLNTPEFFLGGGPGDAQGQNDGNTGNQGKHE
# Assay: Effect of GTP and GDP on radioligand binding
# Assay context: IC50, inhibition of Rebaudioside B binding, radioligand [3H]-Rebaudioside B
Measured parameter: pIC50
Answers are plain numbers, as −log10 of the molar value.

(Q) Any idea what its pIC50 is? The compound is Nc1nc2c(ncn2[C@@H]2O[C@H](COP(=O)(O)OP(=O)(O)OP(=O)(O)O)[C@@H](O)[C@H]2O)c(=O)[nH]1 [GTP, guanosine triphosphate]
(A) 2.04
